# ASSAY EXPLANATION: RP, Thermo Scientific Hypersil GOLD, 5 × 2.1 mm, 1.9 µm, 45 °C, 0.25 mL/min, estimated dead time 0.044 min; A: water + 0.1% formic acid, pH 3; B: 50% acetonitrile + 50% isopropanol + 0.1% formic acid, pH 3; gradient (min/%B) 0/5 0.5/5 5/50 5.5/95 6.5/95 10/5
# ASSAY CONTEXT: stereoisomer not certain
ENDPOINT: LC retention time

# LC retention time (compound: CCCCCCCCC=CCC=CCC=CCCCC(=O)OCC(O)COP(=O)([O-])OCC[N+](C)(C)C (configuration not stated) [lysoPC(20:3)] ) is 6.8 min

Just so you know, measured LC retention time for CCCCCC=CCC=CCCCCCCCC(=O)OCC(O)COP(=O)([O-])OCC[N+](C)(C)C (configuration not stated) [lysoPC(18:2)] came out at 6.72 min

CCCCCC=CCC=CCC=CCC=CCCCCCC(=O)OC(COC(=O)CCCCCCCCCCCCCCC)COP(=O)([O-])OCC[N+](C)(C)C (configuration not stated) [PC(38:4)] yielded LC retention time of 7.4 min

Per the record, CCCCCC=CCC=CCC=CCCCCC(=O)OCC(COP(=O)([O-])OCC[N+](C)(C)C)OC(=O)CCCCCCCCCCCCCCCCCCC (configuration not stated) [PC(38:3)] has LC retention time of 7.4 min

Lab book: LC retention time of CCCCCC=CCC=CCC=CCC=CCC=CCCC(=O)OC(COC(=O)CCCCCCCCCCCCCCCCC)COP(=O)([O-])OCC[N+](C)(C)C (configuration not stated) [PC(40:5)] noted as 7.4 min

In plain terms, CCC=CCC=CCC=CCC=CCC=CCC=CCCC(=O)OCC(O)COP(=O)([O-])OCC[N+](C)(C)C (configuration not stated) [lysoPC(22:6)] has a documented LC retention time of 6.65 min

Reported LC retention time of CCC=CCC=CCC=CCC=CCC=CCC=CCCC(=O)OC(COC(=O)CCCCCCCCCCCCCCCCC)COP(=O)([O-])OCC[N+](C)(C)C (configuration not stated) [PC(40:6)] : 7.14 min
